assay: VSVG counterscreen qHTS to identify inhibitors of SARS-CoV-2 cell entry (AID 1645847); details: VSV-G pseudotyped particle entry, luciferase; series mostly up to 57.2 µM; further: potency means the concentration at half of the fitted maximal effect; nearly all actives have a fitted effect of over 65% in size
Inconclusive results are not listed. The source made the active and inactive calls. The call rests on the fitted dose curve. Numbered stars: 1 amine (or outer) side, 2 acyl side, 3 side chain; on linkers, the order of the positions; unused ones are H or OH. Bridge positions count the residues as written; N and C are the ends. Square brackets hold non-standard residues; d marks the D form. Peptide text beside a SMILES is read from it. I, II: the chains in the order shown. Actinocin(9to1) = Cc1c2oc3c(C)ccc(C(=O)[*:1])c3nc-2c(C(=O)[*:2])c(N)c1=O; NMeV = CN[C@H](C(=O)O)C(C)C; Sar = CNCC(=O)O
Value Kind: Potency

Some entries whose results are on file:
| Compound | Potency |
| --- | --- |
| CNCCC(Oc1ccc(C(F)(F)F)cc1)c1ccccc1 (configuration not stated) | 121 nM (active) |
| Cc1c2oc3c(C)ccc(C(=O)N[C@@H]4C(=O)N[C@H](C(C)C)C(=O)N5CCC[C@H]5C(=O)N(C)CC(=O)N(C)[C@@H](C(C)C)C(=O)O[C@@H]4C)c3nc-2c(C(=O)N[C@@H]2C(=O)N[C@H](C(C)C)C(=O)N3CCC[C@H]3C(=O)N(C)CC(=O)N(C)[C@@H](C(C)C)C(=O)O[C@@H]2C)c(N)c1=O (I: T[dV]P[Sar][NMeV] / II: T[dV]P[Sar][NMeV]; ester I:1-I:C, II:1-II:C; linker I:N-II:N via Actinocin(9to1)) | 42.9 nM (active) |
| N[C@@H](Cc1ccc(N(CCCl)CCCl)cc1)C(=O)O | 152 nM (active) |

Query compound follows.
For the compound shown here, `O=C1CCc2ccc(OCCCCN3CCN(c4cccc(Cl)c4Cl)CC3)cc2N1` , give the reported Potency.
13600 nM (active)
